# pIC50 annotations
molecular target: T1, His-tagged PCSK9Δhelix (human, UniProt Q8NBP7 31-152; Q8NBP7 168-692); test: TR-FRET competition; His-PCSK9Δhelix, competitor Ab20
T1 construct: Construct M1-Q692 with engineered TEV site, cut by TEV protease; new N-terminus of the catalytic domain is S-A168; also called His-PCSK9Δhelix
T1 sequence (Q8NBP7 31-152, stated change not applied, chain 1 of 2): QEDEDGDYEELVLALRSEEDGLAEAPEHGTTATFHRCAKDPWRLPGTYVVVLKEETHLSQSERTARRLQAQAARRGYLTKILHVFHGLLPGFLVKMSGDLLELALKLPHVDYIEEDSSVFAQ
T1 sequence (Q8NBP7 other isoform, or with tags, fused parts or gaps mutant, chain 2 of 2): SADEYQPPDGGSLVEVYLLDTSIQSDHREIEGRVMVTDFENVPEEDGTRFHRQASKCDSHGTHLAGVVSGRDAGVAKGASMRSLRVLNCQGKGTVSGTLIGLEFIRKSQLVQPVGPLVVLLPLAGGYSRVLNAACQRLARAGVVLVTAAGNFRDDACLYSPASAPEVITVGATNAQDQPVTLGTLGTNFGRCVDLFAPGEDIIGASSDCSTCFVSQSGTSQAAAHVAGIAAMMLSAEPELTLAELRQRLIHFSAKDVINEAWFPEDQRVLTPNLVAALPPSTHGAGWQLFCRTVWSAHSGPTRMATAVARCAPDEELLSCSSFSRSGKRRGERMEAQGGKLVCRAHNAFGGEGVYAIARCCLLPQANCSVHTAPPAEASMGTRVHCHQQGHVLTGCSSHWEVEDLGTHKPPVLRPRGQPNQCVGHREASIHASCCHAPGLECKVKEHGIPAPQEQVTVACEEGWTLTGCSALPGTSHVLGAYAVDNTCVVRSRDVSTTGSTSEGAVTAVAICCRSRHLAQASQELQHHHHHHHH
Square brackets hold non-standard residues; d marks the D form. Ends that are not written are not given here. * marks the point of attachment. hArg = N=C(N)NCCCC[C@H](N)C(=O)O; Pentanoyl = CCCCC(=O)*
Remember the convention: pIC50 equals -log10 of concentration in molar.

binder	measure name	recorded number
WNLVRIGLLR (also: further groups not given here, Structure printed only as a drawing) [Compound 127]	pIC50	4.54
WNLVRIGLLR (also: further groups not given here, Structure printed only as a drawing) [Compound 148]	pIC50	4.96
WNLV[hArg]IGLLN (also: further groups not given here, Structure printed only as a drawing) [Compound 238]	pIC50	6.48
Ac-GLMPWNLVRIGLLR-NH2 [Compound 124]	pIC50	5.41
WNLV[hArg]IGLLR (also: end groups and other groups only in drawing, Structure printed only as a drawing) [Compound 205]	pIC50	6.19

// query Fill blank: measured pIC50 of the binder WNLVRIGLTR (also: further groups not given here, Structure printed only as a drawing) [Compound 168] is ____.
// result 5.11

// query Fill blank: measured pIC50 of the binder Ac-SGDLMPWNLVRIGLLR-NH2 [Compound 122] is ____.
// result 5.25

// query Fill blank: measured pIC50 of the binder Ac-MESFPGWNLK[hArg]IGLLR-NH2 (SMILES CC[C@H](C)[C@H](NC(=O)[C@H](CCCCNC(=N)N)NC(=O)[C@H](CCCCN)NC(=O)[C@H](CC(C)C)NC(=O)[C@H](CC(N)=O)NC(=O)[C@H](Cc1c[nH]c2ccccc12)NC(=O)CNC(=O)[C@@H]1CCCN1C(=O)[C@H](Cc1ccccc1)NC(=O)[C@H](CO)NC(=O)[C@H](CCC(=O)O)NC(=O)[C@H](CCSC)NC(C)=O)C(=O)NCC(=O)N[C@@H](CC(C)C)C(=O)N[C@@H](CC(C)C)C(=O)N[C@@H](CCCNC(=N)N)C(N)=O) [Compound 233] is ____.
// result 4.30

// query Fill blank: measured pIC50 of the binder Pentanoyl-WNLV[hArg]IGLTR (also called n-BuC(O)-WNLV(homoR)IGLTR) [Compound 235] is ____.
// result 5.57

// query Fill blank: measured pIC50 of the binder WNLVRIGTLR (also: further groups not given here, Structure printed only as a drawing) [Compound 184] is ____.
// result 4.92

// query Fill blank: measured pIC50 of the binder WNLVRIGLLR (also: further groups not given here, Structure printed only as a drawing) [Compound 133] is ____.
// result 4.77

// query Fill blank: measured pIC50 of the binder WNLV[hArg]IGLLR (also: end groups and other groups only in drawing, Structure printed only as a drawing) [Compound 197] is ____.
// result 7.05
